# test-target: MASP-2 (CCP1-CCP2-SP) (Homo sapiens)
# Construct: 15 μL of Enzyme MASP-2 (CCP1-CCP2-SP) in Assay Buffer
# Sequence (O00187 445-686 limits assumed): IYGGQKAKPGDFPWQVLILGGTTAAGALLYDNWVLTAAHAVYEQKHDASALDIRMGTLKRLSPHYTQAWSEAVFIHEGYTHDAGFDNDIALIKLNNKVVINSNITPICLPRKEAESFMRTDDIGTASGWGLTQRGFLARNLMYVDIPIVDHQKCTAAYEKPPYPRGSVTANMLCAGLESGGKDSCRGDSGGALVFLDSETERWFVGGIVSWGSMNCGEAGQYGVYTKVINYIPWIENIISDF
# Sequence (O00187 298-444 partner limits assumed): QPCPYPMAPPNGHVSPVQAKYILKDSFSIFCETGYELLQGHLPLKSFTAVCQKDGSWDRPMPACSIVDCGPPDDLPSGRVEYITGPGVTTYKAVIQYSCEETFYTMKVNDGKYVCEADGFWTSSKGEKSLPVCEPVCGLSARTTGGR
# assay-explanation: Enzymatic Assay for MASP-2 (fluorogenic substrate)
# condition-label: fluorogenic substrate based on C2 cleavage site; room temperature, 20 min; 20 mM HEPES pH 7.4, 140 mM NaCl, 0.1% Tween 20
Where a name gives a salt, the structure may show the parent alone.
Item-by-item account of Ki
assay-readout: Ki

>  <compound>
C[C@H](NC(=O)[C@H]1C[C@@H](c2ccccc2)CCN1)C(=O)NCc1ccc(C(=N)N)s1 [Compound I-91, di-trifluoroacetate]

>  <test-target>
MASP-2 (CCP1-CCP2-SP) (Homo sapiens)

>  <observed-value>
< 500 nM

$$$$
>  <compound>
C[C@H](NC(=O)[C@H]1C[C@H](C2(c3ccccc3)CC2)CN1)C(=O)NCc1cc2cnccc2[nH]1 [Compound I-8, Di-Trifluoroacetate]

>  <test-target>
MASP-2 (CCP1-CCP2-SP) (Homo sapiens)

>  <observed-value>
< 500 nM

$$$$
>  <compound>
Cc1nc(N)ccc1CNC(=O)[C@H](C)NC(=O)[C@H]1C[C@H](Cc2cccc(C(=O)NCCCCl)c2)CN1 [Compound I-49, Di-Trifluoroacetate]

>  <test-target>
MASP-2 (CCP1-CCP2-SP) (Homo sapiens)

>  <observed-value>
< 500 nM

$$$$
>  <compound>
C[C@H](NC(=O)[C@H]1C[C@@H](c2ccccc2)CCN1)C(=O)NCc1ccc(C#N)s1 [Compound I-92, hydrochloride]

>  <test-target>
MASP-2 (CCP1-CCP2-SP) (Homo sapiens)

>  <observed-value>
2500 to 10000 nM

$$$$
>  <compound>
C[C@H](NC(=O)[C@H]1C[C@H](Cc2ccccc2)CN1)C(=O)NCc1cnc2scc(Cl)c2c1 [Compound I-11, Trifluoroacetate]

>  <test-target>
MASP-2 (CCP1-CCP2-SP) (Homo sapiens)

>  <observed-value>
< 500 nM

$$$$
>  <compound>
Cc1nc(N)ccc1CNC(=O)[C@H](C)NC(=O)[C@H]1C[C@H](Cc2ccn(C)c(=O)c2)CN1 [Compound I-53, Di-Trifluoroacetate]

>  <test-target>
MASP-2 (CCP1-CCP2-SP) (Homo sapiens)

>  <observed-value>
< 500 nM

$$$$
>  <compound>
C[C@H](NC(=O)[C@H]1C[C@H](Cc2ccccc2)CN1)C(=O)NCc1ccc2c(c1)ncn2C [Compound I-30, Trifluoroacetate]

>  <test-target>
MASP-2 (CCP1-CCP2-SP) (Homo sapiens)

>  <observed-value>
2500 to 10000 nM

$$$$
>  <compound>
COC(=O)c1ccc(C[C@@H]2CN[C@@H](C(=O)N[C@@H](C)C(=O)NCc3ccc(N)nc3C)C2)cc1 [Compound I-50, Dihydrochloride]

>  <test-target>
MASP-2 (CCP1-CCP2-SP) (Homo sapiens)

>  <observed-value>
< 500 nM

$$$$
>  <compound>
C[C@H](NC(=O)[C@H]1C[C@H](Oc2ccccc2)CN1)C(=O)NCc1cnc2c(c1)c(Cl)cn2C [Compound I-46, Trifluoroacetate]

>  <test-target>
MASP-2 (CCP1-CCP2-SP) (Homo sapiens)

>  <observed-value>
< 500 nM

$$$$
>  <compound>
C[C@H](NC(=O)[C@H]1C[C@H](Cc2ccc(Cl)s2)CN1)C(=O)NCc1cnc2[nH]cc(Cl)c2c1 [Compound I-83, Dihydrochloride]

>  <test-target>
MASP-2 (CCP1-CCP2-SP) (Homo sapiens)

>  <observed-value>
< 500 nM

$$$$
>  <compound>
Cc1nc(N)ccc1CNC(=O)[C@@H]1CCN1C(=O)[C@H]1C[C@H](Cc2ccc(-c3ccccc3)cc2)CN1 [Compound I-62, Di-Trifluoroacetate]

>  <test-target>
MASP-2 (CCP1-CCP2-SP) (Homo sapiens)

>  <observed-value>
< 500 nM

$$$$
>  <compound>
CCOC(=O)CCN1CC[C@H](c2ccccc2)C[C@@H]1C(=O)N[C@@H](C)C(=O)NCc1ccc(C(=N)N)cc1

>  <test-target>
MASP-2 (CCP1-CCP2-SP) (Homo sapiens)

>  <observed-value>
< 500 nM

$$$$
